# Assay system: DrPRODH (proline dehydrogenase from Deinococcus radiodurans R1) (Deinococcus radiodurans)
# Sequence (Q9RW55 whole entry): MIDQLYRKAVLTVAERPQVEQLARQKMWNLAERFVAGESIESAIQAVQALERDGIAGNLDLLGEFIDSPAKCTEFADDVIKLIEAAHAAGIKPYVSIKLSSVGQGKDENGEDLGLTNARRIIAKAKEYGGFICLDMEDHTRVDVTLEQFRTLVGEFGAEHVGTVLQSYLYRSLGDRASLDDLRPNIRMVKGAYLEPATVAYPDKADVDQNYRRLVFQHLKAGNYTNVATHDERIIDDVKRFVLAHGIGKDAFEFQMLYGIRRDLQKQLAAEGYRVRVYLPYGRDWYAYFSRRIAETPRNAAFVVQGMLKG
Measure name: pKi
API: returns pKi as number; meaning -log10 of concentration in mol/L.

Inquiry: // returns reported pKi for input "O=C(O)[C@@H]1CCCO1"
Reply text: 1.42
